# Read-out: Forkhead box O3 (FOXO3), FOXO3 (gene 2309)
# assay comment: LTEA_HepaRG_FOXO3: Life Technologies and Expression Analysis (LTEA) Assay for Forkhead box O3 (FOXO3) using HepaRG (AID 2283459)
# experimental context: mRNA level, 48 h; actives raise or lower the signal
The source made the active and inactive calls. Rule for the calls: active = hit-call score of the fitted dose curve at least 0.9, where 1 is the maximum; inactive = score below 0.9.
Outcomes: YES (active), NO (inactive)

> print(dat)
                                    compound  assigned.label
 1                CC#Cc1cc(C)nc(Nc2ccccc2)n1             YES
 2                      CCCCCCCCCc1ccc(O)cc1              NO
 3   CC(c1ccc(O)cc1)(c1ccc(O)cc1)c1ccc(O)cc1             YES
 4  CC(C)(O)C(=O)Nc1ccc([N+](=O)[O-])c(C(F)(F)F)c1              NO
 5  ClC1=C(Cl)[C@]2(Cl)[C@@H]3[C@H]4C[C@H]([C@@H]5O[C@H]45)[C@@H]3[C@@]1(Cl)C2(Cl)Cl              NO
 6  Clc1ccc(C(c2ccccc2Cl)C(Cl)(Cl)Cl)cc1 (stereo unspecified)              NO
 7  Cc1ccccc1CO[C@@H]1C[C@@]2(C(C)C)CC[C@]1(C)O2              NO
 8               Cc1cc(-c2ccc(N)c(C)c2)ccc1N             YES
 9                CC(C)(c1ccccc1)c1ccc(O)cc1              NO
10                                  CN(C)CCO              NO
11       O=C(N[C@H]1CN2CCC1CC2)c1cc2ccoc2cn1              NO
12            CCCCCCCCCC[N+](C)(C)CCCCCCCCCC             YES
13                     CCSC(=O)N(CC)C1CCCCC1              NO
14                   Nc1ccc(-c2ccc(N)cc2)cc1              NO
15  O=C(O)C(F)(F)C(F)(F)C(F)(F)C(F)(F)C(F)(F)C(F)(F)C(F)(F)C(F)(F)F             YES
16                   Clc1ccc(C(Cl)(Cl)Cl)cc1              NO
17  N#Cc1ccc(N(CC(N)=O)CC(F)(F)F)cc1C(F)(F)F              NO
18   CCC(C)(CC)c1cc(NC(=O)c2c(OC)cccc2OC)on1              NO
19  O=C(O)C(F)(F)C(F)(F)C(F)(F)C(F)(F)C(F)(F)C(F)(F)C(F)(F)C(F)(F)C(F)(F)F              NO
20                       C=CC(=O)NCNC(=O)C=C              NO
21                c1cc2ccc3cccc4ccc(c1)c2c34              NO

* * *

# assay comment: BSK_SAg_Proliferation: Cell Proliferation Assessment in the BioMAP Diversity Plus: SAg Assay (AID 2283095);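 note: relative cell number as total protein by SRB absorbance in sub-confluent culture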
# experimental context: primary human HUVEC with PBMC
Calls of active or inactive are those of the source. Rule for the calls: active = hit-call score of the fitted dose curve at least 0.9, where 1 is the maximum; inactive = score below 0.9.
Labels: YES = active, NO = inactive

> print(dat)
                            smiles.structure  assigned.label
 1  CO/C=C(/C(=O)OC)c1ccccc1COc1cccc(C(F)(F)F)n1             YES
 2                            Cc1cc(O)ccc1Cl              NO
 3   CC(c1ccc(O)cc1)(c1ccc(O)cc1)c1ccc(O)cc1             YES
 4                     Cc1ccccc1[N+](=O)[O-]              NO
 5  N#Cc1ccc(N(CC(N)=O)CC(F)(F)F)cc1C(F)(F)F              NO
 6                                Cc1ccccc1O              NO
 7  C[C@]12CCC(=O)C=C1CC[C@@H]1[C@@H]2CC[C@]2(C)C(=O)CC[C@@H]12              NO
 8  ClC1=C(Cl)[C@]2(Cl)[C@@H]3[C@@H](Cl)[C@H]4O[C@H]4[C@@H]3C1(Cl)C2(Cl)Cl             YES
 9                                 C=CC(N)=O              NO
10  Cc1cc2c3c(c1)C(c1ccccc1)=N[C@@H](NC(=O)c1ccncc1)C(=O)N3CC2              NO
11       ClC(Cl)=C(c1ccc(Cl)cc1)c1ccc(Cl)cc1             YES
12                c1cc2ccc3cccc4ccc(c1)c2c34              NO
13                           Oc1ccc(Cl)cc1Cl              NO
14                     CCSC(=O)N(CC)C1CCCCC1              NO
15          CN(C)c1nc(=O)n(C2CCCCC2)c(=O)n1C              NO
16  CCC(=O)O[C@H]1CC[C@H]2[C@@H]3CCC4=CC(=O)CC[C@]4(C)[C@H]3CC[C@]12C             YES
17  O=C(NC(=O)c1cc(F)c(F)cc1Cl)Nc1cc(F)ccc1N1CCC(C(=O)O)CC1              NO
18  O=C(O)C(F)(F)C(F)(F)C(F)(F)C(F)(F)C(F)(F)F              NO
19  O=S(=O)(O)C(F)(F)C(F)(F)C(F)(F)C(F)(F)C(F)(F)C(F)(F)F              NO
